Values from patent US20240226230A1

Target: T1, endogenous Nup50 (human, UniProt Q9UKX7 1-468, limits assumed)
T1 construct: Detected with anti-Nup50
T1 sequence (looked up): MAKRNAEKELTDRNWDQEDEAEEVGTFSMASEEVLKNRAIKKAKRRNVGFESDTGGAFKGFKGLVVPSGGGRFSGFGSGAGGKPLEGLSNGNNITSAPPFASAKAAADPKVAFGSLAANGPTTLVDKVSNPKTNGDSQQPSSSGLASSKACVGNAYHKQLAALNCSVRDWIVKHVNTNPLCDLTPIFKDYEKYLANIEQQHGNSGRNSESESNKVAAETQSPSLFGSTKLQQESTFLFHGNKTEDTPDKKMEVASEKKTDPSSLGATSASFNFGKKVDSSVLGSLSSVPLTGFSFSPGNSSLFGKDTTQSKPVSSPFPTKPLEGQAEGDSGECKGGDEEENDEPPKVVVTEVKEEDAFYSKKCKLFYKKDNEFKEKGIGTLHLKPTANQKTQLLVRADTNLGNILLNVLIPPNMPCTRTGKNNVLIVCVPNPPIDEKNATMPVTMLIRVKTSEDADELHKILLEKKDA
Assay: co-IP of GFP-tagged KPNB1 truncations, western blot
result.type: binding result

>>> measured_value("GFP-KPNB1 H1-2 (receptor, not shown: GFP/EGFP tag (pEGFP-C1, Clontech)) GGGSGGGSGGGSMELITILEKTVSPDRLELEAAQKFLERAAVENLPTFLVELSRVLANPGNSQVARVAAGLQIKNSLTSKDPD")
"no binding"
>>> measured_value("GFP-KPNB1 H1-3 (receptor, not shown: GFP/EGFP tag (pEGFP-C1, Clontech)) GGGSGGGSGGGSMELITILEKTVSPDRLELEAAQKFLERAAVENLPTFLVELSRVLANPGNSQVARVAAGLQIKNSLTSKDPDIKAQYQQRWLAIDANARREVKNYVLQTLGTETYRPSSASQCVAGIACAEIPVNQWP")
"no binding"
